Test: Annexin V / SYTOX AADvanced flow cytometry of cell death states
Type: cell-based
Conditions: human, Jurkat (T lymphocyte), Clone E6-1 cells, 10 μM camptothecin, six hours, 37° C., read-out: viable cells (flow cytometry, Annexin V/SYTOX staining)
Method: The REM-I platform was used to obtain images of cells at different states of dying than one another. More specifically, live, viable Jurkat (T Lymphocyte), Clone E6-1 cells were cultured in RPMI-1640 medium (ThermoFisher Scientific) with 10% fetal bovine serum (FBS) at 37° C. with 5% CO2. A suspension of the cells was prepared at a concentration of 2×10^6 cells/mL for apoptosis and necrosis induction. […]
quantity.name: viability at 6 h, 10 μM
Answer with the number, then the unit.

Incoming: Can you share its viability at 6 h, 10 μM? I mean this compound: CC[C@@]1(O)C(=O)OCc2c1cc1n(c2=O)Cc2cc3ccccc3nc2-1
Outgoing: 71%
